Biological target: AURKC (human) (UniProt Q9UQB9)
Sequence (Q9UQB9 whole entry, looked up): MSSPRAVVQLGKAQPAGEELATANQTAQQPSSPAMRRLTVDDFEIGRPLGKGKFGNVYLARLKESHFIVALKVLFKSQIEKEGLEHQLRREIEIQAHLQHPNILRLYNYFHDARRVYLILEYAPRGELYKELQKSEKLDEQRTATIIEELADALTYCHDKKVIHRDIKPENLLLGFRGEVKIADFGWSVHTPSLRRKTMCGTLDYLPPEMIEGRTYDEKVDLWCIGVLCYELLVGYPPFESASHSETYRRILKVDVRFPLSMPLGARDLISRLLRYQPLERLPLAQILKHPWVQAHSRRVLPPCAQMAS
Assay: KINOMEscan competition binding
Settings: compound 10.0 µM
The label Met is reserved for kinase still bound, per cent of control strictly under 90%; Not met covers values equal to or above it.

The examples below pair each entry with its known result.
1. COc1cc2c(Nc3ccc(NC(=O)c4ccccc4)cc3)ncnc2cc1OCCCN1CCOCC1
Met
2. CCN1CCN(Cc2ccc(NC(=O)c3ccc(C)c(/C=C/c4cnc5[nH]ccc5c4OC)c3)cc2C(F)(F)F)CC1
Met
3. CC1=C(C(=O)Nc2cc3cn[nH]c3cc2F)C(c2ccc(C(F)(F)F)cc2)CC(=O)N1 (stereo unspecified)
Met
4. COc1cc(C)c(Sc2cnc(NC(=O)c3ccc(CNC(C)C(C)C)cc3)s2)cc1C(=O)N1CCN(C(C)=O)CC1 (stereo unspecified)
Not met
5. COc1cc(N2CCC(C(N)=O)CC2)ccc1Nc1nc(N)c(Cl)c(Nc2ccccc2S(=O)(=O)C(C)C)n1
Not met

Prompt: Quick check: does COc1ccc(N(C(=O)Oc2cc(C(=O)Nc3cccc(C(F)(F)F)c3)ccc2C)c2ccnc(Nc3ccc(N4CCN(C)CC4)cc3)n2)c(OC)c1 have kinase still bound, per cent of control under 90%?
Response: Not met

Prompt: Threshold test, kinase still bound, per cent of control < 90%: CCN(CCO)CCCOc1ccc2c(Nc3cc(CC(=O)Nc4cccc(F)c4)[nH]n3)ncnc2c1
Response: Met

Prompt: # TODO verify kinase still bound, per cent of control < 90% strictly for this molecule: CCCS(=O)(=O)Nc1ccc(F)c(C(=O)c2c[nH]c3ncc(Cl)cc23)c1F
Response: Not met

Prompt: Quick check: does CCOc1cc(N2CCC(O)CC2)ccc1Nc1ncc2c(n1)N(C)c1ccccc1C(=O)N2C have kinase still bound, per cent of control under 90%?
Response: Not met
